Assay: Pharmacokinetics after intravenous and oral administration in rats
Type: in vivo
Settings: rat, plasma, iv dosing, dose 1 mg/kg
QUANTITY KIND: half-life (min)

a: COc1ccc(-n2cc(Nc3ncc(Cl)c(NC4CC5CN(C(C)=O)CC5C4)n3)cn2)cn1 (stereo not drawn)
b: CC(=O)N1CC2CC(CC#N)(Nc3nc(Nc4cnn(C)c4)ncc3Cl)CC2C1 (stereo not drawn)
I'm curious, which of these has a smaller half-life number: a or b ? API: response body contains the label of the selected item. a
(a: 18 min, b: 43.2 min)

1: Cn1cc(Nc2ncc(Cl)c(NC3CC4CN(C(=O)Nc5ccccc5)CC4C3)n2)cn1 (stereo not drawn)
2: CC(=O)N1CC2CC(Nc3nc(Nc4cnn(-c5ccccn5)c4)ncc3Cl)CC2C1 (stereo not drawn)
3: CC(O)Cn1cc(Nc2ncc(Cl)c(NC3CC4CN(S(=O)(=O)C5CC5)CC4C3)n2)cn1 (stereo not drawn)
Rank entries according to their half-life, from the largest number down. I'd appreciate it if you listed the labels in the requested order. 3, 2, 1

----------
Experiment: Pharmacokinetics after intravenous and oral administration in rats
Format: in vivo
Conditions: rat, plasma, iv dosing, dose 0.5 mg/kg
QUANTITY KIND: AUC(0-t) (ng·h/mL)
Respond numerically; units are ng·h/mL and should not be typed.

Field AUC(0-t) (entry `Cn1cc(Nc2ncc(Cl)c(NC3CCC4(CC3)CCN(C(=O)CC3CC3)CC4)n2)cn1` ) reads 348

----------
Test: Pharmacokinetics after intravenous and oral administration in rats
Format: in vivo
Conditions: iv dosing, dose 1 mg/kg
QUANTITY KIND: Clearance (CL) after iv dosing (mL/min/kg)

Use these answered entries as a reference point.
{"columns": ["COMPOUND", "QUANTITY KIND", "UNIT DESCRIPTOR", "NUMBER"],
 "data": [
  ["Cn1cc(Nc2ncc(Cl)c(NC3CC4CN(C(=O)NC5CC5)CC4C3)n2)cn1 (centres unmarked)", "Clearance (CL) after iv dosing", "mL/min/kg", 63.7],
  ["Cn1cc(Nc2ncc(Cl)c(NC3CC4CN(C(=O)CC5CC5)CC4C3)n2)cn1 (centres unmarked)", "Clearance (CL) after iv dosing", "mL/min/kg", 60.2],
  ["Cn1cc(Nc2ncc(Cl)c(NC3CC4CN(C(=O)Nc5ccccc5)CC4C3)n2)cn1 (centres unmarked)", "Clearance (CL) after iv dosing", "mL/min/kg", 99.2]
]}

P: Cn1cc(Nc2ncc(Cl)c(NC3CC4CN(C(=O)c5ccccc5)CC4C3)n2)cn1 (centres unmarked)
Q: CC(=O)N1CC2CC(CC#N)(Nc3nc(Nc4cnn(C)c4)ncc3Cl)CC2C1 (centres unmarked)
Which entry has a larger number for Clearance (CL) after iv dosing, P or Q ? API: response body contains the label of the selected item. P

----------
Assay: Pharmacokinetics after intravenous and oral administration in rats
Assay type: in vivo
Details: rat, plasma, iv dosing, dose 1 mg/kg
QUANTITY KIND: half-life (min)

Use these answered entries as a reference point.
{"columns": ["MOLECULE", "half-life, min"],
 "data": [
  ["Cn1cc(Nc2ncc(Cl)c(NC3CC4CN(C(=O)CC5CC5)CC4C3)n2)cn1 (centres unmarked)", 14.4],
  ["Cn1cc(Nc2ncc(Cl)c(NC3CC4CN(C(=O)NC5CC5)CC4C3)n2)cn1 (centres unmarked)", 21],
  ["Cn1cc(Nc2ncc(Cl)c(NC3CCC4(CC3)CCN(C(=O)C3CC3)CC4)n2)cn1", 33.6]
]}

P: Cn1cc(Nc2ncc(Cl)c(NC3CC4CN(S(=O)(=O)CC5CC5)CC4C3)n2)cn1 (centres unmarked)
Q: CC(O)Cn1cc(Nc2ncc(Cl)c(NC3CC4CN(S(C)(=O)=O)CC4C3)n2)cn1 (centres unmarked)
Which entry has a larger number for half-life, P or Q ? API: response body contains the label of the selected item. Q

----------
Test: Pharmacokinetics after intravenous and oral administration in rats
Type: in vivo
Settings: iv dosing, dose 1 mg/kg
Method: The compounds disclosed herein are assessed in pharmacokinetic studies in mice, rats, dogs or monkeys. The compounds are administered as a water solution, 2% HPMC+1% TWEEN®80 in water solution, 5% DMSO+5% solutol in saline, 4% MC suspension or capsule. For the intravenous administration, the animals are generally given at 0.5, 1 or 2 mg/kg dose. […] The plasma solutions are collected, and stored at −20° C. or −70° C. until analyzed by LC/MS/MS as described above.
QUANTITY KIND: Clearance (CL) after iv dosing (mL/min/kg)

{"columns": ["COMPOUND", "Clearance (CL) after iv dosing [mL/min/kg]"],
 "data": [
  ["Cn1cc(Nc2ncc(Cl)c(NC3CC4CN(S(=O)(=O)CC5CC5)CC4C3)n2)cn1 (stereo not drawn)", 54.2],
  ["CC(O)Cn1cc(Nc2ncc(Cl)c(NC3CC4CN(S(=O)(=O)CC5CC5)CC4C3)n2)cn1 (stereo not drawn)", 60.7]
]}

A: CC(=O)N1CC2CC(Nc3nc(Nc4cnn(CC(C)(C)O)c4)ncc3Cl)CC2C1 (stereo not drawn)
B: CC(=O)N1CC2CC(Nc3nc(Nc4cnn(-c5ccccn5)c4)ncc3Cl)CC2C1 (stereo not drawn)
C: COc1ccc(-n2cc(Nc3ncc(Cl)c(NC4CC5CN(C(C)=O)CC5C4)n3)cn2)cn1 (stereo not drawn)
Rank entries according to their Clearance (CL) after iv dosing, from the largest number down. I'd appreciate it if you listed the labels in the requested order. C, A, B

----------
Experiment: Pharmacokinetics after intravenous and oral administration in rats
Assay type: in vivo
Conditions: oral bioavailability, iv dose 1 mg/kg
QUANTITY KIND: F (%)

Use these answered entries as a reference point.
{"columns": ["MOLECULE", "UNIT DESCRIPTOR", "F"],
 "data": [
  ["CC(C)(O)Cn1cc(Nc2ncc(Cl)c(NC3CCC4(CC3)CCN(S(C)(=O)=O)CC4)n2)cn1", "%", 53.6],
  ["Cn1cc(Nc2ncc(Cl)c(NC3CC4CN(C(=O)NC5CC5)CC4C3)n2)cn1 (stereo not shown)", "%", 24.0],
  ["Cn1cc(Nc2ncc(Cl)c(NC3CCC4(CC3)CCN(CC(C)(C)O)CC4)n2)cn1", "%", 118.2],
  ["Cn1cc(Nc2ncc(Cl)c(NC3CC4CN(C(=O)c5ccccc5)CC4C3)n2)cn1 (stereo not shown)", "%", 22.5]
]}

1: CCNS(=O)(=O)N1CC2CC(Nc3nc(Nc4cnn(CC(C)O)c4)ncc3Cl)CC2C1 (stereo not shown)
2: CC(=O)N1CC2CC(Nc3nc(Nc4cnn(CC(C)(C)O)c4)ncc3Cl)CC2C1 (stereo not shown)
3: Cn1cc(Nc2ncc(Cl)c(NC3CC4CN(C(=O)Nc5ccccc5)CC4C3)n2)cn1 (stereo not shown)
Rank entries according to their F, from the largest number down. I'd appreciate it if you listed the labels in the requested order. 2, 3, 1

----------
Assay: Pharmacokinetics after intravenous and oral administration in rats
Type: in vivo
Settings: rat, plasma, iv dosing, dose 1 mg/kg, read-out: Vss
QUANTITY KIND: Vd (L/kg)

{"columns": ["COMPOUND", "Vd / L/kg"],
 "data": [
  ["CCNS(=O)(=O)N1CC2CC(Nc3nc(Nc4cnn(CC(C)O)c4)ncc3Cl)CC2C1 (centres unmarked)", 1.97],
  ["CC(O)Cn1cc(Nc2ncc(Cl)c(NC3CC4CN(S(=O)(=O)C5CC5)CC4C3)n2)cn1 (centres unmarked)", 1.75],
  ["Cn1cc(Nc2ncc(Cl)c(NC3CC4CN(S(=O)(=O)CC5CC5)CC4C3)n2)cn1 (centres unmarked)", 1.44],
  ["Cn1cc(Nc2ncc(Cl)c(NC3CC4CN(S(=O)(=O)NC5CC5)CC4C3)n2)cn1 (centres unmarked)", 1.18],
  ["Cn1cc(Nc2ncc(Cl)c(NC3CC4CN(C(=O)Nc5ccccc5)CC4C3)n2)cn1 (centres unmarked)", 1.99],
  ["Cn1cc(Nc2ncc(Cl)c(NC3CC4CN(C(=O)NC5CC5)CC4C3)n2)cn1 (centres unmarked)", 0.95],
  ["Cn1cc(Nc2ncc(Cl)c(NC3CCC4(CC3)CCN(S(=O)(=O)C3CC3)CC4)n2)cn1", 2.07],
  ["Cn1cc(Nc2ncc(Cl)c(NC3CCC4(CC3)CCN(C(=O)C3CC3)CC4)n2)cn1", 1.21],
  ["Cn1cc(Nc2ncc(Cl)c(NC3CCC4(CC3)CCN(CC(C)(C)O)CC4)n2)cn1", 11.9]
]}

A: Cn1cc(Nc2ncc(Cl)c(NC3CC4CN(C(=O)c5ccccc5)CC4C3)n2)cn1 (centres unmarked)
B: CC(O)Cn1cc(Nc2ncc(Cl)c(NC3CC4CN(S(C)(=O)=O)CC4C3)n2)cn1 (centres unmarked)
Which entry has a larger number for Vd, A or B ? API: response body contains the label of the selected item. B
